System: HEK-293T
Test description: Multiplex assay against HEK293T
Type: toxicity, cell-based
Conditions used: human, 48 h, 10 µM, compound concentration 10 uM, replicate 1
Measured attribute: Total Cell Count
A bare number is all that is needed in reply.

Use these answered entries as a reference point.
Compound: Cl.O=c1c2cccn2c2ccccc2n1CCCN1CCC(c2ccc(Cl)cc2)CC1
Recorded result: 311
//
Compound: O=C(Nc1ccc(-n2nc(-c3cccnc3)cc2C(F)(F)F)cn1)c1ccc(-c2ccccc2)c(F)c1
Recorded result: 298
//
Compound: CCc1cccc(CC)c1NC(=O)c1nn(C)c2c1CCc1cnc(Nc3ccc(C(=O)NC4CCN(C)CC4)cc3OC(F)(F)F)nc1-2
Recorded result: 339
//
Compound: CN(C)C(=O)C(CCN1CCC(O)(c2ccc(Cl)cc2)CC1)(c1ccccc1)c1ccccc1.Cl [LOPERAMIDE HYDROCHLORIDE]
Recorded result: 315
//
Compound: CN1CCN(C(=O)C(C)(C)c2ccc(C(=O)Nc3cn4cc(-c5ccncc5)ccc4n3)cc2)CC1
Recorded result: 216
//
Compound: C=C1/C(=C\C=C2/CCC[C@]3(C)[C@@H]([C@H](C)/C=C/[C@H](C)C(C)C)CC[C@@H]23)C[C@@H](O)C[C@@H]1O
Recorded result: 193

Now look at this entry.
Request: What value of measured Total Cell Count is listed for `COCC(=O)NC/C=C/c1ccc2ncnc(Nc3ccc(Oc4ccc(C)nc4)c(C)c3)c2c1` ?
Result: 347
